The compounds listed here are annotated with their K-562 TGI.
- Tested on: K-562 cells
- PROCEDURE_SUMMARY: Cell growth inhibition assay (CellTiter-Glo), K-562;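 further: cellular ATP measured by luminescence after 4 days of exposure, 3-fold dilution series from 10 µM, DMSO vehicle-treated cells define 100%, cell-free medium wells −100%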
- CONDITION_CONTEXT: K-562 cells, total growth inhibition, CellTiter-Glo

As a guide, the following entries are already answered.
COc1ccc(-c2nc3c(n2C(C)C)C(c2ccc(Cl)cc2)N(c2cc(C)c4nnc(C)n4c2)C3=O)cn1 (stereo not drawn)
>10 µM
COc1ccc(-c2nc3c(n2C(C)C)[C@@H](c2ccc(Cl)cc2)N(c2cc(C)c4nnn(C)c4n2)C3=O)cn1
>10 µM
Cc1cc(N2C(=O)c3nc(C4=CCOCC4)n(C(C)C)c3[C@H]2c2ccc(Cl)cc2)cc2c1nnn2C
>10 µM
Cc1cc(N2C(=O)c3nc(C)n(C(C)C)c3[C@H]2c2ccc(Cl)cc2)cn2c(C)nnc12
>10 µM
Cc1cc(N2C(=O)c3nc(-c4ncco4)n(C(C)C)c3C2c2ccc(Cl)cc2)cn2c(C)nnc12 (stereo not drawn)
>10 µM

Ask | What measured K-562 TGI goes with COc1ccc(-c2nc3c(n2C(C)C)C(c2ccc(Cl)cc2)N(c2cc(OC)c4nnc(C)n4c2)C3=O)cn1 (stereo not drawn) ?
Reply | >10 µM

Ask | What measured K-562 TGI goes with COc1ncc(-c2nc3c(n2C(C)C)C(c2ccc(Cl)cc2)N(c2cc(C)c4onc(C)c4c2)C3=O)c(OC)n1 (stereo not drawn) ?
Reply | >10 µM

Ask | What measured K-562 TGI goes with CCn1c(-c2ccc(OC)nc2)nc2c1C(=O)N(c1cc(C)c(=O)n(C)c1)C2c1ccc(Cl)cc1 (stereo not drawn) ?
Reply | >10 µM

Ask | What measured K-562 TGI goes with CCOC(=O)N1CC=C(c2nc3c(n2C(C)C)C(c2ccc(Cl)cc2)N(c2cc(C)c4nnc(C)n4c2)C3=O)CC1 (stereo not drawn) ?
Reply | >10 µM

---

Test system K-562 cells, GI50 listed for each of the compounds.
Write down the numeric answer in nM and omit the unit.

As a guide, the following entries are already answered.
COc1ncc(-c2nc3c([nH]2)[C@@H](c2ccc(Cl)cc2)N(c2cc(OC)c4nnc(C)n4c2)C3=O)c(OC)n1
1230
COc1ncccc1-c1nc2c([nH]1)C(c1ccc(Cl)cc1)N(c1cc(C)c3nnn(C)c3c1)C2=O (stereo not shown)
142
Cc1cc(N2C(=O)c3nc(C4CCN(C)CC4)n(C(C)C)c3C2c2ccc(Cl)cc2)nn2c(C)nnc12 (stereo not shown)
55.9
COc1cc(N2C(=O)c3nc(C4=CCOCC4)n(C(C)C)c3[C@H]2c2ccc(Cl)cc2)cc2c1nnn2C
116
CCOC(=O)N1CC=C(c2nc3c(n2C(C)C)C(c2ccc(Cl)cc2)N(c2cc(C)c4nnc(C)n4c2)C3=O)CC1 (stereo not shown)
353

Ask | Lab note: need GI50 for COc1ncccc1-c1nc2c(n1C(C)C)[C@@H](c1ccc(Cl)cc1)N(c1cc(C)c3nnc(C(F)F)n3c1)C2=O on K-562 cells, anyone have it?
Reply | 24.1

Ask | Lab note: need GI50 for COc1cc(C(F)(F)F)ccc1-c1nc2c([nH]1)C(c1ccc(Cl)cc1)N(c1cc(C)c3nnc(C)n3c1)C2=O (stereo not shown) on K-562 cells, anyone have it?
Reply | 227

---

The compounds listed here are annotated with their IC50.
- TEST_SYSTEM: CREBBP bromodomain (His-CREBBP(1081-1197)) (Homo sapiens (Human), UniProt Q92793)
- Sequence (Q92793 1081-1197): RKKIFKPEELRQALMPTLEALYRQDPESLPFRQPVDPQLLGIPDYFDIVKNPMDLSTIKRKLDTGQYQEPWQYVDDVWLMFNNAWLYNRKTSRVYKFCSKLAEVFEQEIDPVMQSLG
- PROCEDURE_SUMMARY: AlphaScreen in-vitro binding assay for CREBBP
- CONDITION_CONTEXT: single determination or n ≧ 2 independent determinations, read-out: Biochemical IC50 CREBBP
Write down the numeric answer in µM and omit the unit.

As a guide, the following entries are already answered.
COc1ncc(-c2nc3c(n2C(C)C)[C@@H](c2ccc(Cl)cc2)N(c2cc(C)c4nnc(C(F)F)n4c2)C3=O)c(OC)n1
12.6
Cc1cc(N2C(=O)c3nc(C4=CCOCC4)[nH]c3[C@H]2c2ccc(Cl)cc2)cn2c(C)nnc12
1.65
CC(C)n1c(-c2ccccn2)nc2c1C(c1ccc(Cl)cc1)N(c1ccc(=O)n(C)c1)C2=O (centres unmarked)
24.6

Ask | What measured IC50 goes with Cc1cc(N2C(=O)c3nc(C)n(C(C)C)c3[C@H]2c2ccc(Cl)cc2)nn2c(C)nnc12 ?
Reply | 35.9

---

- TEST_SYSTEM: nuclear BRD4-NUT foci in HCC2494 NUT midline carcinoma cells (Homo sapiens)
- PROCEDURE_SUMMARY: cell-based
The compounds listed here are annotated with their log10 IC50.
A difference of one corresponds to tenfold IC50; all values are log10 with IC50 in nM.

As a guide, the following entries are already answered.
COc1ccc(-c2nc3c(n2C)C(=O)N(c2cc(C)c(=O)n(C)c2)C3c2ccc(Cl)cc2)cn1 (stereo not drawn)
1.94
Cc1cc(N2C(=O)c3nc(C)n(C(C)C)c3C2c2ccc(Cl)cc2)cc2c1nnn2C (racemic)
1.16
Cc1cc(N2C(=O)c3nc(C4CC4)n(C(C)C)c3C2c2ccc(Cl)cc2)cn2c(C)nnc12 (racemic)
1.21

Ask | Lab note: need log10 IC50 for COc1ncc(-c2nc3c(n2C(C)C)C(c2ccc(Cl)cc2)N(c2cc(C)c4nnc(C)n4c2)C3=O)c(OC)n1 (stereo not drawn) on nuclear BRD4-NUT foci in HCC2494 NUT midline carcinoma cells (Homo sapiens), anyone have it?
Reply | 2.26

Ask | Lab note: need log10 IC50 for Cc1cc(N2C(=O)c3[nH]c(C4CC4)nc3C2c2ccc(Cl)cc2)cn(C)c1=O (stereo not drawn) on nuclear BRD4-NUT foci in HCC2494 NUT midline carcinoma cells (Homo sapiens), anyone have it?
Reply | 2.35

Ask | Lab note: need log10 IC50 for COc1cc(N2C(=O)c3nc(C4CC4)n(C(C)C)c3C2c2ccc(Cl)cc2)cn2c(C)nnc12 (stereo not drawn) on nuclear BRD4-NUT foci in HCC2494 NUT midline carcinoma cells (Homo sapiens), anyone have it?
Reply | 2.51

Ask | Lab note: need log10 IC50 for COc1ccc(-c2nc3c(n2C)C(=O)N(c2cc(C)c(=O)n(C)c2)[C@@H]3c2ccc(Cl)cc2)cn1 on nuclear BRD4-NUT foci in HCC2494 NUT midline carcinoma cells (Homo sapiens), anyone have it?
Reply | 1.87

---

Test system BRD4 (His-Brd4(44-477)) (Homo sapiens (Human), UniProt O60885), pIC50 listed for each of the compounds.
// returns pIC50 (minus log10 of molar concentration), number only

Cc1cc(N2C(=O)c3nc(C4CC4)n(C(C)C)c3[C@H]2c2ccc(Cl)cc2)cn2c(C)nnc12
7.64

Ask | Lab note: need pIC50 for CCn1c(C)nc2c1C(=O)N(c1cc(C)c3nnn(C)c3c1)C2c1ccc(Cl)cc1 (stereo not shown) on BRD4 (His-Brd4(44-477)) (Homo sapiens (Human), UniProt O60885), anyone have it?
Reply | 7.54

Ask | Lab note: need pIC50 for COC(=O)N1CC=C(c2nc3c(n2C(C)C)C(c2ccc(Cl)cc2)N(c2cc(C)c4nnc(C)n4c2)C3=O)CC1 (stereo not shown) on BRD4 (His-Brd4(44-477)) (Homo sapiens (Human), UniProt O60885), anyone have it?
Reply | 7.62

Ask | Lab note: need pIC50 for CC(C)n1c(-c2ccnn2C)nc2c1C(c1ccc(Cl)cc1)N(c1ccc(=O)n(C)c1)C2=O (stereo not shown) on BRD4 (His-Brd4(44-477)) (Homo sapiens (Human), UniProt O60885), anyone have it?
Reply | 6.11

Ask | Lab note: need pIC50 for COc1ncccc1-c1nc2c([nH]1)C(c1ccc(Cl)cc1)N(c1cc(C)c3nnn(C)c3n1)C2=O (stereo not shown) on BRD4 (His-Brd4(44-477)) (Homo sapiens (Human), UniProt O60885), anyone have it?
Reply | 7.89

Ask | Lab note: need pIC50 for Cc1cc(N2C(=O)c3nc(C)n(C(C)C)c3[C@H]2c2ccc(Cl)cc2)cc2c1nnn2C on BRD4 (His-Brd4(44-477)) (Homo sapiens (Human), UniProt O60885), anyone have it?
Reply | 7.66

---

Test system K-562 cells, GI50 listed for each of the compounds.
Write down the numeric answer in nM and omit the unit.

As a guide, the following entries are already answered.
Cc1cc(N2C(=O)c3nc(C4=CCOCC4)n(C(C)C)c3C2c2ccc(Cl)cc2)nc2c1nnn2C (stereo not shown)
25.8
COc1cc(N2C(=O)c3nc(C)n(C(C)C)c3C2c2ccc(Cl)cc2)cc2c1nnn2C (stereo not shown)
458
Cc1cc(N2C(=O)c3nc(C)n(C(C)C)c3C2c2ccc(Cl)cc2)cn2c(C(F)F)nnc12 (stereo not shown)
87.5
COc1ncccc1-c1nc2c(n1C(C)C)C(c1ccc(Cl)cc1)N(c1cc(OC)c3nnn(C)c3c1)C2=O (racemic)
158
Cc1cc(N2C(=O)c3[nH]c(C4CC4)nc3[C@H]2c2ccc(Cl)cc2)cn(C)c1=O
305

Ask | What measured GI50 goes with Cc1cc(N2C(=O)c3nc(C4CCOCC4)n(C(C)C)c3[C@H]2c2ccc(Cl)cc2)nn2c(C)nnc12 ?
Reply | 13.4

Ask | What measured GI50 goes with COc1ncccc1-c1nc2c(n1C(C)C)C(c1ccc(Cl)cc1)N(c1cc(C)c3nnc(CF)n3c1)C2=O (stereo not shown) ?
Reply | 63.6
